Reported IC50 values are given for each entry in this list.
Target: M1-family alanyl aminopeptidase (Plasmodium falciparum 3D7)
Experiment: PfM1AAP enzyme inhibition, dose response, selectivity assay for PfM18AAP inhibitor project, biochemical, QFRET, H-Leu-NHMec substrate, set 2 (AID 602219)
Settings: recombinant PfM1AAP, H-Leu-NHMec fluorogenic cleavage
Results filed as inconclusive are left out.
Endpoint: IC50

Structure as smiles: Oc1ccc(CCNc2c3ccccc3nc3ccccc23)cc1O
Endpoint: IC50
Reading: 29.8 µM
--
Structure as smiles: CN1CCN(c2nc(-c3ccc(O)c(O)c3)cs2)CC1
Endpoint: IC50
Reading: 70.1 µM
--
Structure as smiles: Oc1ccc(CCNc2ccnc3ccccc23)cc1O
Endpoint: IC50
Reading: 46.4 µM
--
Structure as smiles: Oc1ccc(-c2csc(Nc3ncccn3)n2)cc1O
Endpoint: IC50
Reading: 25.9 µM
--
Structure as smiles: Oc1ccc(-c2csc(NC3CCCC3)n2)cc1O
Endpoint: IC50
Reading: 63 µM
